// values below are reported DC50
SYSTEM UNDER TEST: IKZF2 (Homo sapiens, UniProt Q96SW2+Q9UKS7)
Sequence (Q9UKS7 1-500 isoform Q9UKS7-2): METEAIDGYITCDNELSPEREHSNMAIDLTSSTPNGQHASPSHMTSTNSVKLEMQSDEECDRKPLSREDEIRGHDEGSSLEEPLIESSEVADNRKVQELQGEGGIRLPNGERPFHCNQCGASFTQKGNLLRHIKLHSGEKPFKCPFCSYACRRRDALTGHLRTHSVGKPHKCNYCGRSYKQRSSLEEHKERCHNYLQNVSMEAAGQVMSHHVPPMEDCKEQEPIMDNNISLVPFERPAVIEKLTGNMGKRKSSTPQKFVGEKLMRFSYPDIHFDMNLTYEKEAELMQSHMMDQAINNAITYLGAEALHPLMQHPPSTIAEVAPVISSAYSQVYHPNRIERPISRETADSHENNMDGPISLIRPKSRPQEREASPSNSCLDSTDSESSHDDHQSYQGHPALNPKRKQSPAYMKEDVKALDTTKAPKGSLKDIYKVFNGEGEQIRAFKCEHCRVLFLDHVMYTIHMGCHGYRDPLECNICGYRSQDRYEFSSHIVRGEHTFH
Sequence (Q96SW2 whole entry): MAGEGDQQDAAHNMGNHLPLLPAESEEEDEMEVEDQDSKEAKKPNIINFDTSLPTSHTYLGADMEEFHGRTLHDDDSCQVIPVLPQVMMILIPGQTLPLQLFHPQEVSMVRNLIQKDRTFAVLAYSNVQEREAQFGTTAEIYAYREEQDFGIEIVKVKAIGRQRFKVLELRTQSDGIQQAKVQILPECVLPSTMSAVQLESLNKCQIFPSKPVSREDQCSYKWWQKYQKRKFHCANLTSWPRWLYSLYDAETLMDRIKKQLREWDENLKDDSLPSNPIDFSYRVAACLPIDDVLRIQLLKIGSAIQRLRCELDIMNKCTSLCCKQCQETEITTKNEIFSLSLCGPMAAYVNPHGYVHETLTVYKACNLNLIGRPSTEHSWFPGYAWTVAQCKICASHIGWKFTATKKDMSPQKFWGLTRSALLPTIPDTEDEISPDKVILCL
Sequence (Q16531 whole entry partner): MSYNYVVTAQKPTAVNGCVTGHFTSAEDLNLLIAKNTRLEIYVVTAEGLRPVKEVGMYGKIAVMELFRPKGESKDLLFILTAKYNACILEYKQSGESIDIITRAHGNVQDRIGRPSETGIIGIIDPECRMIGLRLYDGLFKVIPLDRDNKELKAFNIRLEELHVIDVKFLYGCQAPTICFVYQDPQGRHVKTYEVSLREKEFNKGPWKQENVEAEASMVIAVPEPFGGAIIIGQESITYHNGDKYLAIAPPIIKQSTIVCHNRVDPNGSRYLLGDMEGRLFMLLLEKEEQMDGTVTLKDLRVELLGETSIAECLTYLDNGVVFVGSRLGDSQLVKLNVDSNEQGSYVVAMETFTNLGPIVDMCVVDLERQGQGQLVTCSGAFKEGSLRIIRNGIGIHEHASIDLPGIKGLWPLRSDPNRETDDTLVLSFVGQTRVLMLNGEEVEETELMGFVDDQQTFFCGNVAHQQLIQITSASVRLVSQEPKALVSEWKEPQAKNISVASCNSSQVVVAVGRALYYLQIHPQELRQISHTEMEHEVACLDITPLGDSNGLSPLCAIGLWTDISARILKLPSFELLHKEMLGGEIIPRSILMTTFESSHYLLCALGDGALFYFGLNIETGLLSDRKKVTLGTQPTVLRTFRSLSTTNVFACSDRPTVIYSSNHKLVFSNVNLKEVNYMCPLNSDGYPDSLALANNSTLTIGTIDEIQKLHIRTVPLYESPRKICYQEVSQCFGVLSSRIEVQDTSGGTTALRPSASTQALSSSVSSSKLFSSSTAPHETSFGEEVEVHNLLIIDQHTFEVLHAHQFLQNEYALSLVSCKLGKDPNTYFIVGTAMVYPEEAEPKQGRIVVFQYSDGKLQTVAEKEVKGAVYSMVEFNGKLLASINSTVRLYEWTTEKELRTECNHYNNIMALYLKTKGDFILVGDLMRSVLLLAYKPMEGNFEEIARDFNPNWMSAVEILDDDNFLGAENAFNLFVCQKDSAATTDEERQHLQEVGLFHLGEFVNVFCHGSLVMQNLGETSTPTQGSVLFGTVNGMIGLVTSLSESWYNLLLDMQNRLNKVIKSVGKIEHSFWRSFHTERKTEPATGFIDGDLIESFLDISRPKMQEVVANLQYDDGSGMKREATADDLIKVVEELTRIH
ASSAY PROTOCOL: HEK293 HiBiT in vitro degradation of IKZF2
Type: cell-based
Parameters: expressed in transfected cells
CONDITIONS USED: HEK293 HiBiT, 18-24 hr incubation, normalized to DMSO control; read-out: IKZF2 EC50
Kindly provide the numeric value in nM only, without the unit symbol.

O=C1CCC(N2Cc3cc(C[C@H]4CCCC[C@@H]4NC4CCc5c(C(F)(F)F)n[nH]c5C4)ccc3C2=O)C(=O)N1 (single isomer, unassigned) [Example 362] ... 11
CC1(C)CCCC(N[C@H]2CCCC[C@@H]2Cc2ccc3c(c2)CN(C2CCC(=O)NC2=O)C3=O)C1 (single isomer, unassigned) [Example 276] ... 3
O=C1CCC(N2Cc3cc(C[C@H]4CCCC[C@@H]4NCc4ccc(C(F)(F)F)cc4)ccc3C2=O)C(=O)N1 (stereo partly shown) [Example 16] ... 42

// next item, DC50 requested
The compound listed as COC1CCC(NC2CCCOC2Cc2ccc3c(c2F)CN(C2CCC(=O)NC2=O)C3=O)CC1 (stereo not shown) [Example 156] shows DC50 equal to 6

----------
SYSTEM UNDER TEST: IKZF1 (Homo sapiens, UniProt Q13422+Q96SW2)
Construct: expressed in transfected cells
Sequence (Q13422 whole entry): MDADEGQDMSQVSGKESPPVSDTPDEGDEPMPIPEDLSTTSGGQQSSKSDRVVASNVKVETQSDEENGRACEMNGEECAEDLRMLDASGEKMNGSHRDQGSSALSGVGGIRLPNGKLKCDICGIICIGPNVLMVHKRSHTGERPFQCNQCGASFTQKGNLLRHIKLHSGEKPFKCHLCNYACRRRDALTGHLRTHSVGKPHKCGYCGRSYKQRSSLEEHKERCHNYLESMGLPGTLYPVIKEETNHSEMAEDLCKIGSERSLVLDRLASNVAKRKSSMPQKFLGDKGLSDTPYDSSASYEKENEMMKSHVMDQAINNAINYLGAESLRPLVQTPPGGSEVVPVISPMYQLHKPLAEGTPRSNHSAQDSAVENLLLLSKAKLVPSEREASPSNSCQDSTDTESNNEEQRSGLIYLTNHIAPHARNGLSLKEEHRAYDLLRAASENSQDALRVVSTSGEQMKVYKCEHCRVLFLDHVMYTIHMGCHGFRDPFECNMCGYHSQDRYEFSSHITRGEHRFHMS
Sequence (Q96SW2 whole entry): as the sequence (Q96SW2 whole entry) above
Sequence (Q16531 whole entry partner): as the sequence (Q16531 whole entry partner) above
ASSAY PROTOCOL: HEK293 HiBiT in vitro degradation of IKZF1
Type: cell-based
CONDITIONS USED: HEK293 HiBiT, 18-24 hr incubation, normalized to DMSO control; read-out: IKZF1 EC50
# DC50 per record follows
Record the value in nM, omitting the unit from your answer.

Solved entries:
C[C@H]1CCCC(N[C@H]2CCCC[C@@H]2Cc2ccc3c(c2)CN(C2CCC(=O)NC2=O)C3=O)C1 (some centres unmarked) [Example 236] ... 122
N#CCC1CCC(N[C@H]2CCCC[C@@H]2Cc2ccc3c(c2)CN(C2CCC(=O)NC2=O)C3=O)CC1 (single isomer, unassigned) [Example 269] ... 266

Kindly note: IKZF1 (Homo sapiens, UniProt Q13422+Q96SW2), O=C1CCC(N2Cc3c(ccc(C[C@H]4CCCC[C@@H]4NC4CCOC4)c3F)C2=O)C(=O)N1 (some centres unmarked) [Example 117] , DC50 value reported: 39

For CC(C)(CCN[C@H]1CCCC[C@@H]1Cc1ccc2c(c1)CN(C1CCC(=O)NC1=O)C2=O)C(F)(F)F (some centres unmarked) [Example 182] on IKZF1 (Homo sapiens, UniProt Q13422+Q96SW2), measured DC50 was 43

Form field, DC50 with IKZF1 (Homo sapiens, UniProt Q13422+Q96SW2), item O=C1CCC(N2Cc3cc(C[C@H]4CCCC[C@@H]4NCc4ccccc4Cl)ccc3C2=O)C(=O)N1 (some centres unmarked) [Example 3] : 34

Tested on IKZF1 (Homo sapiens, UniProt Q13422+Q96SW2), the item O=C1CCC(N2Cc3cc(C[C@H]4CCCC[C@@H]4NC4CCC(C(F)F)CC4)ccc3C2=O)C(=O)N1 (some centres unmarked) [Example 216] showed DC50 equal to 51

The molecule CC(N[C@H]1CCCC[C@@H]1Cc1ccc2c(c1)CN(C1CCC(=O)NC1=O)C2=O)C1CCS(=O)(=O)CC1 (single isomer, unassigned) [Example 371] , when measured on IKZF1 (Homo sapiens, UniProt Q13422+Q96SW2), yielded DC50 of 461

For O=C1CCC(N2Cc3cc(C[C@H]4C=C(F)CC[C@@H]4NC4CCCCC4)ccc3C2=O)C(=O)N1 (some centres unmarked) [Example 314] on IKZF1 (Homo sapiens, UniProt Q13422+Q96SW2), measured DC50 was 653

Reported IKZF1 (Homo sapiens, UniProt Q13422+Q96SW2) DC50 for item O=C1CCC(N2Cc3cc(C[C@H]4CCCC[C@@H]4NC4CC5(COC5)C4)ccc3C2=O)C(=O)N1 (some centres unmarked) [Example 80] was 299

----------
SYSTEM UNDER TEST: IKZF1 (Homo sapiens, UniProt Q13422+Q96SW2)
Construct: expressed in transfected cells
ASSAY PROTOCOL: HEK293 HiBiT in vitro degradation of IKZF1
Type: cell-based
CONDITIONS USED: HEK293 HiBiT, 18-24 hr incubation, normalized to DMSO control; read-out: IKZF1 EC50
# maps each entry to its DC50

O=C1CCC(N2Cc3cc(C[C@H]4CCCC[C@@H]4NCCOc4ccccc4Cl)ccc3C2=O)C(=O)N1 (some centres unmarked) [Example 65] ... > 1 µM
CC1(C)OCCC1N[C@H]1CCCC[C@@H]1Cc1ccc2c(c1)CN(C1CCC(=O)NC1=O)C2=O (single isomer, unassigned) [Example 273] ... > 1 µM
O=C1CCC(N2Cc3cc(C[C@H]4CCCC[C@@H]4NCc4ccccc4)ccc3C2=O)C(=O)N1 (single isomer, unassigned) [Example 25] ... > 1 µM
O=C1CCC(N2Cc3cc(C[C@H]4CCCC[C@@H]4NC4CCC(OC(F)(F)F)CC4)ccc3C2=O)C(=O)N1 (single isomer, unassigned) [Example 146] ... 0.168 µM
O=C1CCC(N2Cc3cc(C[C@H]4CCCC[C@@H]4NC4COc5ccccc5C4)ccc3C2=O)C(=O)N1 (some centres unmarked) [Example 143] ... > 1 µM

Kindly note the recorded DC50 for O=C1CCC(N2Cc3cc(C[C@H]4CCCC[C@@H]4NC4CC5CCC4O5)ccc3C2=O)C(=O)N1 (some centres unmarked) [Example 193] , which is > 1 µM

Lab note: O=C1CCC(N2Cc3cc(C[C@H]4CC[C@@H](F)C[C@@H]4NC4CCCCC4)ccc3C2=O)C(=O)N1 (some centres unmarked) [Example 355] gave DC50 of > 1 µM

The compound listed as O=C1CCC(N2Cc3cc(C[C@H]4CCC[C@H](O)[C@@H]4NC4CCC(F)(F)CC4)ccc3C2=O)C(=O)N1 (single isomer, unassigned) [Example 151] shows DC50 equal to > 1 µM

response.value for O=C1CCC(N2Cc3cc(C[C@H]4CCCC[C@@H]4NCc4cccnc4F)ccc3C2=O)C(=O)N1 (some centres unmarked) [Example 62] (field: DC50) = > 1 µM

GET /value?item= O=C1CCC(N2Cc3c(ccc(C[C@H]4OCCC[C@@H]4NC4CCOC4)c3F)C2=O)C(=O)N1 (single isomer, unassigned) [Example 297] &field=DC50 returns > 1 µM

# compound O=C1CCC(N2Cc3c(ccc(C[C@H]4OCCC[C@@H]4NC4CC5(CCC5)C4)c3F)C2=O)C(=O)N1 (some centres unmarked) [Example 157] ; its DC50 = 0.061 µM

# compound O=C1CCC(N2Cc3cc(C[C@H]4OCCC[C@@H]4NC4CCC(F)CC4)ccc3C2=O)C(=O)N1 (single isomer, unassigned) [Example 366] ; its DC50 = > 1 µM

So for O=C1CCC(N2Cc3cc(C[C@H]4CCCC[C@@H]4NC4C5CCCC4CC5)ccc3C2=O)C(=O)N1 (some centres unmarked) [Example 199] , the logged DC50 turned out to be > 10 µM

In plain terms, O=C1CCC(N2Cc3c(ccc(C[C@H]4OCCC[C@@H]4NC4CCC5(CC4)CC5(F)F)c3F)C2=O)C(=O)N1 (single isomer, unassigned) [Example 364] has a documented DC50 of 0.045 µM

Lab book: DC50 of O=C1CCC(N2Cc3cc(C[C@H]4CCCC[C@@H]4N4CC(OCc5ccccc5)C4)ccc3C2=O)C(=O)N1 (some centres unmarked) [Example 33] noted as > 1 µM

Summary for this compound, O=C1CCC(N2Cc3cc(C[C@H]4CCCC[C@@H]4NC4COC4)ccc3C2=O)C(=O)N1 (some centres unmarked) [Example 72] : DC50 is > 1 µM

Entry CC(CC(C)(C)C)N[C@H]1CCCC[C@@H]1Cc1ccc2c(c1)CN(C1CCC(=O)NC1=O)C2=O (some centres unmarked) [Example 205] , DC50 reported as > 1 µM

Please fill in: DC50 reported for O=C1CC[C@H](N2Cc3cc(C[C@H]4CCCC[C@@H]4NC4CCC(F)(F)CC4)ccc3C2=O)C(=O)N1 (single isomer, unassigned) [Example 328] = 0.022 µM

Data point: CC(N[C@H]1CCCC[C@@H]1Cc1ccc2c(c1)CN(C1CCC(=O)NC1=O)C2=O)C1(C)CCC1 (some centres unmarked) [Example 207] ; DC50 = > 1 µM

// DC50 lookup, compound = O=C1CCC(N2Cc3cc(C[C@H]4OCCC[C@@H]4NC4CCC(C(F)(F)F)CC4)ccc3C2=O)C(=O)N1 (single isomer, unassigned) [Example 357] , result: 0.465 µM

The reported DC50 of the compound O=C1CC[C@@H](N2Cc3cc(C[C@H]4CCCC[C@@H]4NC4CCC(F)(F)CC4)ccc3C2=O)C(=O)N1 (single isomer, unassigned) [Example 329] was 0.05 µM

Sample O=C1CCC(N2Cc3cc(C[C@H]4CCC[C@@H]4NC4CCC(F)(F)CC4)ccc3C2=O)C(=O)N1 (some centres unmarked) [Example 178] ; DC50 observed: > 1 µM

The compound listed as O=C1CC[C@H](N2Cc3cc(C[C@H]4CCCC[C@@H]4NC4CCCCC4)ccc3C2=O)C(=O)N1 (single isomer, unassigned) [Example 336] has a reported DC50 of > 1 µM

Documented DC50 of N#CCC1CCC(N[C@H]2CCCC[C@@H]2Cc2ccc3c(c2)CN(C2CCC(=O)NC2=O)C3=O)CC1 (single isomer, unassigned) [Example 270] : 0.179 µM

Briefly, DC50 measured for CCC(C)N[C@H]1CCCC[C@@H]1Cc1ccc2c(c1)CN(C1CCC(=O)NC1=O)C2=O (single isomer, unassigned) [Example 299] : > 1 µM

Recorded result, CC1(C)CC2(CC(N[C@H]3CCCC[C@@H]3Cc3ccc4c(c3)CN(C3CCC(=O)NC3=O)C4=O)C2)C1 (some centres unmarked) [Example 100] , DC50: 0.061 µM
